assay: xn = mol fraction of the nth substance listed; conditions: 298.15 K; 98.93 kPa; Liquid; x1 = 0.2
Numbers after ± are expanded uncertainties.
Below, each entry is listed with its recorded mass density.
readout_name: mass density

In [3]: df
Out[3]:
                                   compound               result
0                    CCCO [propan-1-ol] + O   916.46 ± 1.2 kg/m3
1  CC(O)CO (centres undefined) [1,2-propanediol] + O   1035.6 ± 1.4 kg/m3
2                   OCC(O)CO [glycerol] + O  1140.54 ± 1.6 kg/m3
3               OCCCO [propan-1,3-diol] + O  1034.66 ± 1.4 kg/m3
